B1: ETS1 (parent)
chain: YVRDRADLNKDKPVIPAAALAGYT

# Variants of: B1
# methodDescription: protein stability index of a GFP-peptide fusion (GPS, HEK-293T) (PSI 1-6); higher = more stable;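 further: lentivirally expressed fusions sorted by FACS into six bins by GFP to DsRed ratio, PSI derived from sequencing read proportions per bin multiplied by bin number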
# conditionInfo: c terminus: a fixed tail appended
endpointLabel: protein stability index
Hey, just send me the number, nothing else.

{"orderedResidues": "YVRDRADLNKDKPVIPACALAGYT [A18C]", "endpointLabel": "protein stability index", "resultValue": 2.33}
{"orderedResidues": "YERDRADLNKDKPVIPAAALAGYT [V2E]", "endpointLabel": "protein stability index", "resultValue": 4.25}

Need protein stability index of YVRDRADLNKDKPVIPVAALAGYT [A17V] , thanks.
1.63

Need protein stability index of YVRDRFDLNKDKPVIPAAALAGYT [A6F] , thanks.
2.46

Need protein stability index of YVRDRADLNKDKPVIPAAALAGQT [Y23Q] , thanks.
1.86

Need protein stability index of YVRDRADLNKDKPQIPAAALAGYT [V14Q] , thanks.
1.4

Need protein stability index of YVRDRADLNKDKPVIPAAALEGYT [A21E] , thanks.
2.1

Need protein stability index of YVRDRAKLNKDKPVIPAAALAGYT [D7K] , thanks.
2.99

Need protein stability index of YVRDRDDLNKDKPVIPAAALAGYT [A6D] , thanks.
1.8

Need protein stability index of YVRDRADMNKDKPVIPAAALAGYT [L8M] , thanks.
2.9

Source of measurements: the supplement of paper PMC10567573
